test system: Escherichia coli TOP10; assay: shrunken log2 fold change of peptide-encoding DNA abundance (4.5 h post-induction vs induction); higher = less antimicrobial activity (less host growth inhibition); details: time post-induction: 4.5 h; library: site-saturation at positions 5, 18, 19, 20;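 further: peptides expressed intracellularly from a pBAD plasmid library in pooled LB shake-flask culture, induced with 0.3% L-arabinose, DNA abundance read by NGS, three biological replicates, DESeq2 with apeglm shrinkage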
Record Yes whenever shrunken log2 fold change is at 0.08 or higher; record No when lower.

- Sequence text: "RRIRGRPPRLPRPRPRPGPWPRP"
  Label class: "Yes"
- Sequence text: "RRIRARPPRLPRPRPRPGWKPRP"
  Label class: "Yes"
- Sequence text: "RRIRKRPPRLPRPRPRPIDEPRP"
  Label class: "No"
- Sequence text: "RRIRNRPPRLPRPRPRPALKPRP"
  Label class: "Yes"
- Sequence text: "RRIRMRPPRLPRPRPRPKAIPRP"
  Label class: "Yes"
- Sequence text: "RRIRTRPPRLPRPRPRPKFAPRP"
  Label class: "Yes"
- Sequence text: "RRIRMRPPRLPRPRPRPVTCPRP"
  Label class: "Yes"
- Sequence text: "RRIRIRPPRLPRPRPRPMMIPRP"
  Label class: "No"
- Sequence text: "RRIRHRPPRLPRPRPRPQQFPRP"
  Label class: "No"
- Sequence text: "RRIRWRPPRLPRPRPRPKMYPRP"
  Label class: "No"
- Sequence text: "RRIRPRPPRLPRPRPRPGFLPRP"
  Label class: "Yes"
- Sequence text: "RRIRWRPPRLPRPRPRPILVPRP"
  Label class: "No"
- Sequence text: "RRIRSRPPRLPRPRPRPAPFPRP"
  Label class: "Yes"
- Sequence text: "RRIRERPPRLPRPRPRPMHRPRP"
  Label class: "No"
- Sequence text: "RRIRTRPPRLPRPRPRPVEKPRP"
  Label class: "No"
- Sequence text: "RRIRVRPPRLPRPRPRPGSNPRP"
  Label class: "No"
- Sequence text: "RRIRERPPRLPRPRPRPNDEPRP"
  Label class: "No"
- Sequence text: "RRIRARPPRLPRPRPRPQDHPRP"
  Label class: "No"
- Sequence text: "RRIRSRPPRLPRPRPRPDSNPRP"
  Label class: "No"
- Sequence text: "RRIRPRPPRLPRPRPRPRDAPRP"
  Label class: "Yes"
- Sequence text: "RRIRKRPPRLPRPRPRPQRMPRP"
  Label class: "Yes"
- Sequence text: "RRIRMRPPRLPRPRPRPTEGPRP"
  Label class: "Yes"
- Sequence text: "RRIRYRPPRLPRPRPRPVYSPRP"
  Label class: "Yes"
- Sequence text: "RRIRQRPPRLPRPRPRPFERPRP"
  Label class: "No"
- Sequence text: "RRIRWRPPRLPRPRPRPKWGPRP"
  Label class: "Yes"
- Sequence text: "RRIRDRPPRLPRPRPRPNCDPRP"
  Label class: "No"
- Sequence text: "RRIRPRPPRLPRPRPRPGHSPRP"
  Label class: "No"
- Sequence text: "RRIRCRPPRLPRPRPRPNPPPRP"
  Label class: "Yes"
- Sequence text: "RRIRSRPPRLPRPRPRPIERPRP"
  Label class: "No"
- Sequence text: "RRIRIRPPRLPRPRPRPPPWPRP"
  Label class: "Yes"
- Sequence text: "RRIRRRPPRLPRPRPRPNLHPRP"
  Label class: "No"
- Sequence text: "RRIRLRPPRLPRPRPRPTGGPRP"
  Label class: "Yes"
